Source of measurements: patent US20250152746A1

Tested on: PCSK9 gene
Test: PCSK9 gRNA/SpCas9 editing in primary human hepatocytes (Tables 2, 4)
Format: cell-based
Details: modified gRNA, SpCas9 mRNA MS002 1:1 by weight; day 3 post transfection
In the oligonucleotide strings, read from the 5' end, every base follows the letter of its sugar. An asterisk marks phosphorothioate; unmarked linkages are phosphodiester. Other units and linkages are bracketed, terminal groups are in braces. A string of capitals states the bases alone. m = 2'-O-methyl; r = 2'-OH (RNA)
Note to self: values exactly at 20% are true. So % Editing, day 3 at or above 20% is true, below is false.

Below, 3 molecules whose answers are already recorded.
| molecule | discrete label |
| --- | --- |
| GA004: PCSK9 gRNA, GA156 spacer with modifications to the tracrRNA sequence (nucleic acid) guide: mG*mG*mU*rGrCrUrArGrCrCrUrUrGrCrGrUrUrCrCrGmGrUrUrUrUrArGmAmGmCmUmAmGmAmAmAmUmAmGmCmAmArGrUrUmArAmArAmUrAmAmGmGmCmUmArGrUmCmCrGrUrUrAmUmCrArAmCmUmUmGmAmAmAmAmAmGmUmGrGmCmAmCmCmGmAmGmUmCmGmGmUmGmCmUmUmUmUmU | false |
| GA009: minimally modified control gRNA, PCSK9 (nucleic acid) guide: mG*mG*mU*rGrCrUrArGrCrCrUrUrGrCrGrUrUrCrCrGrGrUrUrUrUrArGrArGrCrUrArGrArArArUrArGrCrArArGrUrUrArArArArUrArArGrGrCrUrArGrUrCrCrGrUrUrArUrCrArArCrUrUrGrArArArArArGrUrGrGrCrArCrCrGrArGrUrCrGrGrUrGrCrU*mU*mU*mU | false |
| GA002: PCSK9 gRNA, GA156 spacer with modifications to the tracrRNA sequence (nucleic acid, listed as RNA; modified_base 1: mod_base = OTHER; note = 2'-O-Methyl-guanosine phosphorothioate; modified_base 2: mod_base = OTHER; modified_base 3: mod_base = OTHER; note = 2'-O-Methyl-uridine phosphorothioate) guide: GGTGCTAGCCTTGCGTTCCGGTTTTAGAGCTAGAAATAGCAAGTTAAAATAAGGCTAGTCCGTTATCAACTTGAAAAAGTGGCACCGAGTCGGTGCTTTT | true |

Input: API: above_or_equal(metric=% Editing, day 3, cutoff=20%) for item GA001: PCSK9 gRNA, GA156 spacer with modifications to the tracrRNA sequence (nucleic acid) guide: rG*rG*rU*rGrCrUrArGrCrCrUrUrGrCrGrUrUrCrCrGrGrUrUrUrUrArGrAmGmCmUmAmGmAmAmAmUmAmGmCrArArGrUrUrArArArArUrArArGrGrCrUrArGrUrCrCrGrUrUrArUrCrAmAmCmUmUmGmAmAmAmAmAmGmUmGmGmCmAmCmCmGmAmGmUmCmGmGmUmGmCmU*mU*mU*mU
Output: false

Input: API: above_or_equal(metric=% Editing, day 3, cutoff=20%) for item GA005: PCSK9 gRNA, GA156 spacer with modifications to the tracrRNA sequence (nucleic acid, chemistry not given here) guide: GGTGCTAGCCTTGCGTTCCGGTTTTAGAGCTAGAAATAGCAAGTTAAAATAAGGCTAGTCCGTTATCAACTTGAAAAAGTGGCACCGAGTCGGTGCTTTTT
Output: false

Input: API: above_or_equal(metric=% Editing, day 3, cutoff=20%) for item GA007: structure-guided 2′-OMe heavy guide RNA (gRNA) design, PCSK9 (nucleic acid) guide: mG*mG*mU*rGrCrUrArGrCrCrUrUrGrCrGrUrUrCrCrGmGrUrUrUrUrArGmAmGmCmUmAmGmAmAmAmUmAmGmCmAmArGrUrUmArAmArAmUrAmAmGmGmCmUmArGrUmCmCrGrUrUrAmUmCrArAmCmUmUmGmAmAmAmAmAmGmUmGrGmCmAmCmCmGmAmGmUmCmGmGmUmGmCmU*mU*mU*mU
Output: true
